Target: human ether-à-go-go-related gene (hERG) potassium channel (human);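 note: peak tail current of the secondary pulse compared with the same well before compound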
Sequence (Q12809 whole entry, looked up): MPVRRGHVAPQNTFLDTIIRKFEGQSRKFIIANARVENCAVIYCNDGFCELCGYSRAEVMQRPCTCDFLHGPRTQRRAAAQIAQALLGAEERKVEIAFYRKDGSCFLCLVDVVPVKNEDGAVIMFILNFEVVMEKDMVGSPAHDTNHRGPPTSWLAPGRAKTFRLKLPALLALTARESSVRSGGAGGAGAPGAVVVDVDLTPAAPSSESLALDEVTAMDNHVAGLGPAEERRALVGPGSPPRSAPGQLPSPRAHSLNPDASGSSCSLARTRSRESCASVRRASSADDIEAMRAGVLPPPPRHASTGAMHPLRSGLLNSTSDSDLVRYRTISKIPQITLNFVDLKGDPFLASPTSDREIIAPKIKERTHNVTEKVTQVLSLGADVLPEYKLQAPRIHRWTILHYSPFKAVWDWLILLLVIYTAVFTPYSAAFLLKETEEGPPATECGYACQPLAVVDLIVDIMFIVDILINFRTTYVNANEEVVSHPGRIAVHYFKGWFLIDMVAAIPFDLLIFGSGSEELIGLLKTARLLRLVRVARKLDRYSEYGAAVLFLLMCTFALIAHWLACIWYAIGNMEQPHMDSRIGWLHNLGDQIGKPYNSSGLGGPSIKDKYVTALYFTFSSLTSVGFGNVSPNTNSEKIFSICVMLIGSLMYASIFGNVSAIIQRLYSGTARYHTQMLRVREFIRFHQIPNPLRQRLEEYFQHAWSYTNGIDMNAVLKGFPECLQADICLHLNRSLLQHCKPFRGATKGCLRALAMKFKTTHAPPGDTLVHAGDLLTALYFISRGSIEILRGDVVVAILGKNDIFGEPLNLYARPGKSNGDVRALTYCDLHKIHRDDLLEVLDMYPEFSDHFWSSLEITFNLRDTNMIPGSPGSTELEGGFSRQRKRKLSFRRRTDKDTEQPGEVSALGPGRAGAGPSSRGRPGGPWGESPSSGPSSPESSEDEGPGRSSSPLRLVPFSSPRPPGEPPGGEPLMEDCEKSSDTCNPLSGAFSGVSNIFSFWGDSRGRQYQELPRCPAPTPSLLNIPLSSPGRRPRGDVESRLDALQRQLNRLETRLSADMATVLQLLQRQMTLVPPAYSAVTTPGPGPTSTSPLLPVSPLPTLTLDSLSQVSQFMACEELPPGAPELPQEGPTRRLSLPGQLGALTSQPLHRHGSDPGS
Experiment: primary screen, population patch clamp on CHO cells stably expressing hERG; higher = less effect of the substance
About 14,000 (4.5%) of roughly 310,000 compounds showed an effect of 50% or more. The effect is printed as a negative number. Only a selection was taken, and strong results are over-represented in it overall.
# binarize hERG current change (%, negative = inhibition) at 10uM: threshold -20% inclusive, high side yes, low side no

Would you please look over these solved cases?
>>> class_assignment("Cc1ccc(-c2cc(C(=O)N3CCN(c4ncccn4)CC3)c3ccccc3n2)cc1")
"no"
>>> class_assignment("O=C(NC1CCS(=O)(=O)C1)c1cc(-c2ccccc2)nc2ccccc12 (stereo not shown)")
"yes"
>>> class_assignment("Cc1ccc(-c2cc(C(=O)N3CCN(C4CCS(=O)(=O)C4)CC3)c3ccccc3n2)cc1 (stereo not shown)")
"no"
>>> class_assignment("O=C(c1cc(-c2ccc(F)cc2)nc2ccccc12)N1CCN(C2CCS(=O)(=O)C2)CC1 (stereo not shown)")
"no"
>>> class_assignment("CCCCN(C(=O)COc1ccc(C)cc1OC)c1c(N)n(CCC)c(=O)[nH]c1=O")
"yes"
>>> class_assignment("CN1CCc2c(OCC(=O)NC3CCCCC3)cccc2C1=O")
"yes"

Prompt: API: above_or_equal(metric=hERG current change (%, negative = inhibition) at 10uM, cutoff=-20%) for item CS(=O)(=O)O.CSc1ccc2c(c1)C(N1CCN(C)CC1)Cc1ccccc1S2 (stereo not shown)
Response: no

Prompt: Input `CCc1c(C)nc2ncnn2c1Nc1ccc(C#N)c(Cl)c1`
Response: no

Prompt: # iterate: `O=C(COC(=O)CNS(=O)(=O)c1ccccc1)NC12CC3CC(CC(C3)C1)C2`
Response: yes

Prompt: Again, but for CC1(C)CC(=O)C2=C(C1)N(Cc1ccc(F)cc1)C(=O)C2(NC(=O)c1cccnc1)C(F)(F)F (stereo not shown)
Response: yes

Prompt: Here is the next molecule: `O=c1c2[nH]c3ccc(F)cc3c2ncn1CCCn1ccnc1`
Response: no
